assay-protocol: self-splicing fitness, log relative to wild type (ln ratio); higher = more splicing; Tetrahymena group I intron in knt gene, E. coli kanamycin selection, DiMSum; sequences stand for … in CUCUCU…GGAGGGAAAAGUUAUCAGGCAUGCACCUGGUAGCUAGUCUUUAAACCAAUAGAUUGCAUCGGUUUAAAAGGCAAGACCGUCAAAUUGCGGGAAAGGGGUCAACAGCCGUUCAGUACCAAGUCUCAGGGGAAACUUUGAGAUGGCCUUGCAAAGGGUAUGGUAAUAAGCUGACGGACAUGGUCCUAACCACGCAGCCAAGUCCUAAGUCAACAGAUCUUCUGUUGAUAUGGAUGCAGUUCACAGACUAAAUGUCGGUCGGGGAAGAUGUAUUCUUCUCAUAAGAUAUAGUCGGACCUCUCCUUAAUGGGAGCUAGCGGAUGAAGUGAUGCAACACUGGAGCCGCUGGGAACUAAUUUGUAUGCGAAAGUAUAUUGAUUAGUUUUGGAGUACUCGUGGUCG;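 note: selection with 25 µg/mL kanamycin versus none on LB agar overnight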
condition-details: 30 °C
endpoint-label: self-splicing fitness (ln)
Response field accepts a number only; no unit should be typed.

UUGCAGCAAUAUUACGUCCA    -0.493

For reference, reported self-splicing fitness (ln) for `CCAGAGCAAUAUUACGCUGC` stands at -2.85

Documented self-splicing fitness (ln) of `CUUAAGCAAUAUUACGGUAG` : -1.58

Reported self-splicing fitness (ln) of `UAACAGCAAUAUUACGGUCA` : -0.282

Input `UAACAGCAAUAUUACGGGUC` . Output self-splicing fitness (ln): -3.89

// sample `AGUUAGCAAUAUUACGUUGC` , its self-splicing fitness (ln) was -4.72

Query `GGUAAGCAAUAUUACGUGCA` yields self-splicing fitness (ln) of -0.586

Form field self-splicing fitness (ln), entry `AUACAGCAAUAUUACGACGC` : -0.948

Value of self-splicing fitness (ln) reported for the sequence `UGGCAGCAAUAUUACGUUCC` is -2.02

Looking up `AAGCAGCAAUAUUACGGUCG` , I found its self-splicing fitness (ln) recorded as -1.34

Form field self-splicing fitness (ln), entry `AGUAAGCAAUAUUACGGAUU` : -1.92

`AAUAAGCAAUAUUACGCCGC` has a reported self-splicing fitness (ln) of -2.65

Short answer for `AGGUAGCAAUAUUACGCGCC` : self-splicing fitness (ln) was -2.6

Consider `GUUAAGCAAUAUUACGAACG` . Its measured self-splicing fitness (ln) is -2.01

Entry `UUGCAGCAAUAUUACGUCUA` , self-splicing fitness (ln) reported as -0.361

Given item `GGUUAGCAAUAUUACGGGCA` , the value recorded as its self-splicing fitness (ln) is -0.0835

Kindly note the recorded self-splicing fitness (ln) for `UCACAGCAAUAUUACGAAGG` , which is -1.55

self-splicing fitness (ln) measured on `UAACAGCAAUAUUACGGGUA` = -0.895

Memo: `AGGUAGCAAUAUUACGCGAA` , reported self-splicing fitness (ln): -1.61
